# target.of.assay: GAL4-PPARγ chimeric receptor (Homo sapiens)
# Sequence (P37231 with tags, fused parts or gaps): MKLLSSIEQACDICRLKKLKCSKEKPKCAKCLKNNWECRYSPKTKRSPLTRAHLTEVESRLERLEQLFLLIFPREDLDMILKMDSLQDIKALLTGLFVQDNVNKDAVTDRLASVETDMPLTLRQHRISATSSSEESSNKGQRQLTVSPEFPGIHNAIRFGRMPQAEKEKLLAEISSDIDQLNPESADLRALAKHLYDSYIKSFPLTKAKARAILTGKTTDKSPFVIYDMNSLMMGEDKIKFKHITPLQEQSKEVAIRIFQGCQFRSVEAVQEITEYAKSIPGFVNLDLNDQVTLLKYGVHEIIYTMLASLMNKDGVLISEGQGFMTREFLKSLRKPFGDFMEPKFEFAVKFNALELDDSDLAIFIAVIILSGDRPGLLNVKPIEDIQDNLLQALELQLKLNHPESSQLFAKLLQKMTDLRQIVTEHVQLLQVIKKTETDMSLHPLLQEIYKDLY
# test.protocol: PPARγ activation effect/modulator activity, GAL4-PPARγ luciferase reporter assay in COS-7 cells
measured.endpoint: pEC50
Give bare numbers, as −log10 of the molar value.

Cn1c(COc2cccc(C(=O)O)c2)nc2ccc(Oc3ncc(Cl)cc3F)cc21 [Example 5] :: 7.62

Now for a further compound.
Return value of pEC50 for input CCc1cccnc1Oc1ccc2nc(COc3cccc(C(=O)O)c3)n(C)c2c1 [Example 2] , no commentary.
6.74

* * *

# System: KK mice
# test.protocol: Hypoglycemic effect (glucose lowering rate) in diabetic KK mice
# Type: in vivo
# test.settings: male KK mice, diet admixture containing 0.03% of the compound, three days, plasma glucose on the 3rd day vs control group
Quick rule: Glucose lowering rate (%) of at least 30% means 1.0, below that means 0.0.

Answered cases to consult:
Cc1cc(F)cnc1Oc1ccc2nc(COc3cccc(C(=O)O)c3)n(C)c2c1 :: 1.0
Cc1cnc(Oc2ccc3nc(COc4cccc(C(=O)O)c4)n(C)c3c2)c(C)c1 :: 1.0
Cc1ccc(Oc2ccc3nc(COc4cccc(C(=O)O)c4)n(C)c3c2)nc1C :: 0.0

API: above_or_equal(metric=Glucose lowering rate (%), cutoff=30%) for item `Cc1cnc(Oc2ccc3nc(COc4cccc(C(=O)O)c4)n(C)c3c2)c(F)c1`
1.0
